// read-out pKi, gathered for Tyrosine-protein kinase JAK3 (Homo sapiens, UniProt P52333) from published studies
pKi: −log10 of the molar value.
Value type: pKi

CC(C)(Nc1nc(-c2ccc3c(c2)OCO3)ncc1F)C(=O)NCC(F)(F)F | 5.00 to 6.00
Cc1cnc2c(-c3cc(NC4CCC4)ncn3)c(N)nn2c1 | 5.30 to 6.30
CCOC(=O)N1CCN(c2ccc(-c3cnc4c(-c5ccccn5)c(N)nn4c3)cn2)CC1 | < 5.30
C[C@H](Nc1nc(-c2c[nH]c3ncncc23)ncc1F)C(=O)NCC(F)(F)F | > 6.30
CCC(C)Nc1cc(-c2c(N)nn3cc(C)cnc23)ncn1 (stereo not drawn) | 5.30 to 6.30
CC[C@@H](C(=O)NCC(F)(F)F)n1ccc2cnc(-c3c[nH]c4ncncc34)nc21 | > 6.30
Nc1ncccc1-c1ncc(F)c(NCC(=O)NCC(F)(F)F)n1 | ≥ 6.00
CC(C)[C@@H](Nc1nc(-c2ccc(O)cc2)ncc1F)C(=O)NCC(F)(F)F | 4.30 to 5.00
c1cnc2[nH]cc(-c3oncc3C3CCCCC3)c2c1 | 6.00 to 6.70
Oc1ccc(C2Nc3ccccc3-c3ncnc4[nH]cc2c34)c(F)c1 (stereo not drawn) | ≥ 6.60
O=C1Nc2ccccc2-c2ncnc3[nH]cc(c23)C1c1ccc(O)cc1 (stereo not drawn) | ≥ 6.60
C[C@H](Nc1cc(-c2cnn3cccnc23)nc(OCCN2CCOCC2)n1)c1ccc(F)cc1F | 7.00 to 8.00
O=C(CCNc1ccnc(-c2c[nH]c3ncncc23)n1)NCC(F)(F)F | > 6.30
Nc1nn2cc(CCCO)cnc2c1-c1ccccn1 | < 5.30
c1nc(C2CC3CCC2C3)c2cc[nH]c2n1 (stereo not drawn) | > 6.30
COCCCN1CCN(C(=O)c2ccc(-c3cnc4c(-c5ccccn5)c(N)nn4c3)nc2)CC1 | 5.30 to 6.30
Oc1ccc(C2Nc3ccccc3-c3c(Cl)cnc4[nH]cc2c34)c(Cl)c1 (stereo not drawn) | ≥ 6.60
CNC(=O)c1cnc2c(-c3ccccn3)c(N)nn2c1 | < 5.30

----------
Record: compiled Ki on Tyrosine-protein kinase JAK3 (Homo sapiens, UniProt P52333) from multiple reports.
Value type: Ki

Nc1nn2cc(-c3cccnc3N3CCC(N4CCCC4)CC3)cnc2c1-c1ccccn1 | > 5 µM
CCCN(CCCN)C(=O)c1ccc(-c2cnc3c(-c4ccccn4)c(N)nn3c2)nc1 | 0.5 to 5 µM
C[C@H](Nc1cc(-c2c(N)nn3ccc(C(F)(F)F)nc23)ncn1)c1ccc(F)cc1F | 0.1 to 0.5 µM
CCN(C)C(=O)c1cccc(-c2cnc3c(-c4ccccn4)c(N)nn3c2)n1 | > 5 µM
Cc1cnc2c(-c3cc(NCC4CCCO4)ncn3)c(N)nn2c1 (stereo not shown) | 0.5 to 5 µM
C[C@@H]1CC[C@@H](C)N1C(=O)c1cc(-c2ncnc3[nH]cc(Cl)c23)c[nH]1 | < 0.1 µM
O=C(NCC(F)(F)F)[C@H]1CCCCN1c1cnc(-c2c[nH]c3ncncc23)nc1 | < 0.5 µM
O=C1COc2ccc(-c3ccnc(Nc4cccc(-c5ccccc5)c4)n3)cc2N1Cc1ccccn1 | < 5 µM
OCCCC1Nc2ccccc2-c2ccnc3[nH]cc1c23 (stereo not shown) | > 2.5 µM
CN(Cc1ccccc1)c1cc(-n2cnc(Nc3ccccc3)n2)ccn1 | 0.01 to 1 µM
CC(C)[C@@H](Nc1ccnc(-c2c[nH]c(C(=O)N3CCCC3)c2)n1)C(=O)NCC(F)(F)F | 1 to 10 µM
Cc1cc(C)cc(Nc2nccc(-c3ccc4c(c3)N(Cc3cccnc3)C(=O)CO4)n2)c1 | < 5 µM
Fc1cccc(-c2cnoc2-c2c[nH]c3ncc(/C=C/n4cncn4)cc23)c1F | < 0.2 µM
CC(=O)NCCC(=O)Nc1nc(-c2ncnc3[nH]ccc23)cs1 | 0.1 to 0.5 µM
CCCCCN(C)C(=O)c1cc(-c2ncnc3[nH]cc(C)c23)c[nH]1 | 0.1 to 0.5 µM
COCCN(CCOC)C(=O)c1cc(-c2ncnc3[nH]ccc23)c[nH]1 | 0.1 to 0.5 µM
O=C(Nc1ccnc(-c2cnn3cccnc23)c1)c1ccc(F)cc1F | 0.5 to 5 µM
CCN1CCN(CCCc2cnc3c(-c4ccccn4)c(N)nn3c2)CC1 | > 5 µM
CCN(CC)C(=O)COc1nc(N[C@@H](C)c2ccc(F)cc2F)cc(-c2c(N)nn3cccnc23)n1 | 0.1 to 0.5 µM
Cn1cc2c3c(ncnc31)-c1ccccc1NC2c1ccc(O)c(F)c1 (stereo not shown) | ≤ 0.25 µM
C[C@H](Nc1cc(C(=O)O)nc(-c2c[nH]c3ncncc23)n1)C(=O)NCC(F)(F)F | < 0.5 µM
N#CCN(Cc1ccccc1)C(=O)c1ccc(-c2ncnc3[nH]ccc23)o1 | 0.1 to 0.5 µM
CCNC(=O)C(CC(F)(F)F)Nc1nc(-c2c[nH]c3ncncc23)ncc1F (stereo not shown) | 0.5 to 5 µM
COc1cccc(Nc2nccc(-c3ccc4c(c3)N(CCN3CCOCC3)C(=O)CO4)n2)c1 | < 5 µM
COc1cccc(-c2cnoc2-c2c[nH]c3ncccc23)c1OC | 0.2 to 1 µM
O=C(Nc1ccc(-c2ccnc(Nc3cccc(O)c3)n2)cc1)c1cccs1 | ≤ 1 µM
CNC(=O)CC(Nc1cc(-c2cnn3cccnc23)ncn1)c1ccc(F)cc1 (stereo not shown) | 0.01 to 0.1 µM
O=C(CCc1ccccc1)Nc1cc(-n2cnc(Nc3ccccc3)n2)ccn1 | > 1 µM
CC(C)CNC(=O)c1cc(-c2ncnc3[nH]ccc23)c[nH]1 | < 0.1 µM
COC[C@H](Nc1nc(-c2c[nH]c3ncncc23)nc2ccccc12)C(=O)NCC(F)(F)F | 0.5 to 5 µM
C[C@H](Nc1cc(-c2cnn3cccnc23)nc(OCC2CCCN(C)C2)n1)c1ccc(F)cc1F (stereo partly shown) | 0.01 to 0.1 µM
O=C(CCC1CC1)Nc1nc(-c2ncnc3[nH]ccc23)cs1 | < 0.1 µM
CN(CCC#N)C(=O)c1cc(-c2ncnc3[nH]ccc23)c[nH]1 | < 0.1 µM
CS(=O)(=O)NC1CC=C(c2cnc3[nH]cc(-c4oncc4-c4cccc(F)c4F)c3c2)CC1 (stereo not shown) | < 0.2 µM
